# credit: PubChem BioAssay (NCI)

system: SK-MEL-28 melanoma; experiment: NCI tumour cell line growth inhibition, 48 h
Where a SMILES comes first, the peptide text is derived from it. The star is where a group is joined. ONb = O=[N+]([O-])c1ccc(CO*)cc1; Boc = CC(C)(C)OC(=O)*
readout.label: TGI

CCCCCCCCCc1cccc(N2C(N)=NC(N)=NC2(C)C)c1 = 3.44 µM
CN(C)c1nncc2[nH]cnc12 = > 100 µM
O=C(CC1(O)C(=O)Nc2c(Cl)cc(Cl)cc21)c1cccc2ccccc12 (stereo not given) = 34.1 µM
O=C1CCC(=O)N1n1c(Cc2ccc(Cl)cc2)n[nH]c1=O = > 100 µM
N#C/C(=C\NC(=S)c1ccncc1)c1nc2ccccc2s1 = > 100 µM
O=C(O)c1cccc(N=Nc2c(S(=O)(=O)O)ccc3c2C(=O)c2ccccc2C3=O)c1O = > 100 µM
CC(C)CC(NC(=O)OC(C)(C)C)C(=O)NC(CCC(=O)OCc1ccc([N+](=O)[O-])cc1)C(=O)OCc1ccc([N+](=O)[O-])cc1 (stereo not drawn) (Boc-Leu-Glu(ONb)-ONb; configuration not given here) = 30.9 µM
COc1ccc2c(c1)n([O-])c1ccccc1[n+]2=O = > 100 µM
COC1OC(COCc2ccc(Cl)cc2)C(OCc2ccc(Cl)cc2)C1N=[N+]=[N-] (stereo not given) = > 100 µM

stdin: Bench note: what TGI did COc1ccc(/C(C#N)=C/c2ccc(OC)c(OC)c2)cc1 show?
stdout: > 100 µM

###

test system: HCT-116 colon; test: NCI tumour cell line growth inhibition, 48 h; in the data active = GI50 below about 0.43 µM; inactive = the rest
The reply should be one of these categories: True for active, False for inactive

Previously resolved entries follow.
COc1ccc(Nc2c3ccccc3nc3ccccc23)cc1 = False
CC1(C)[C@@H](O[C@@H]2OC[C@@H](O[C@@H]3O[C@H](CO)[C@@H](O)[C@H](O)[C@H]3O[C@@H]3OC[C@@H](O)[C@H](O)[C@H]3O)[C@H](O)[C@H]2O[C@@H]2O[C@H](CO)[C@@H](O)[C@H](O)[C@H]2O)CC[C@]2(C)[C@H]3CC[C@]45OC[C@@]6(CC[C@](C)(C=O)C[C@H]64)[C@H](O)C[C@@]5(C)[C@]3(C)CC[C@@H]12 = False
COc1cc2c(cc1Nc1nc(Nc3ccsc3C(N)=O)c3cc[nH]c3n1)N(C(=O)CN(C)C)CCC2(C)C = False
CC(=Nc1ccccc1)C1=C(O)C(Cc2ccccc2)NC1=O (configuration not stated) = True
Nc1nc(-c2ccc(F)cc2)c(-c2ccc3ncccc3n2)s1 = False

stdin: Please indicate how the test categorized Fc1ccc(Nc2nc3nonc3nc2Nc2ccc(F)cc2)cc1 .
stdout: True

stdin: Please indicate how the test categorized O=C1/C(=C/c2ccc(Cl)cc2)N=C(c2ccccc2)N1CCc1cccs1 .
stdout: False

###

test system: SNB-78 CNS; test: NCI tumour cell line growth inhibition, 48 h
readout.label: TGI (µM)
One number for each entry, in µM.

CN1CCC(CN2c3ccccc3Sc3ccccc32)CC1 = 30

Next:
stdin: Bench note: what TGI did O=C(CC1(O)C(=O)Nc2c(Cl)cc(Cl)cc21)c1cccc2ccccc12 (stereo not given) show?
stdout: 46.6

###

tested on: HOP-62 NSCLC; assay: NCI tumour cell line growth inhibition, 48 h
readout.label: TGI (µM)
Numbers only, in µM.

Consider the reported TGI for these compounds:
Brc1ccc2c([C@H]3CN[C@@H](c4c[nH]c5cc(Br)ccc45)CN3)c[nH]c2c1 = 23.8
COc1ccc(OC)c(CC2CCc3nc(N)nc(N)c3C2)c1 (centres undefined) = 24.4
CCCCCCCCCc1cccc(N2C(N)=NC(N)=NC2(C)C)c1 = 1.24
C#CC1(O)C(COP(=O)(O)OCC2OC(n3ccc(NCCCCCCCCCCCCCCCCCC)nc3=O)C(O)C2O)OC(n2ccc(N)nc2=O)C1O (centres undefined) = 46.7

For the 5 compounds below, give their TGI values.
1. Cc1noc2nnn(-c3ccc(Cl)cc3)c(=O)c12
2. O=C(/C=C/c1cc(O)c(O)cc1O)OCCc1ccccc1
3. CCOC(=O)C1OC(C2(C)OC3(OC4(C=CC3O)OC(C(C)C(=O)C(C)C(O)C(C)CC(C)c3c(Cl)cc(C)c(O)c3C(=O)O)C(C)CC4C)C(C)C2OC)CC1O (centres undefined)
4. COC(=O)C1=C(C)NC(C)=C(C(=O)OC)C1/C=C(Cl)/C=C/c1ccccc1
5. C=C1CC/C=C(\C)C(=O)C[C@@H]2[C@@H]1CC2(C)C

stdout:
[29.7, 75.4, 0.483, 38.5, 31.1]

###

Please provide measured TGI for the entries that follow.
test system: HL-60(TB) leukemia; experiment: NCI tumour cell line growth inhibition, 48 h

Consider the reported TGI for these molecules:
O=C1[C@@H]2[C@@H](c3ccccc3)[C@]2(Cl)C(=O)[C@H]2[C@H](c3ccccc3)[C@@]12Cl = > 100 µM
COc1cc2c3c(n(CCCI)c(=O)c2cc1OC)-c1cc2c(cc1C3=O)OCO2 = > 100 µM
N#C/C(=C\c1cc(Cl)cc(Cl)c1)c1ccccn1 = > 100 µM
O=C(O)c1cnc2[nH]ccn2c1=O = > 100 µM
COc1ccc2oc(OC)c(CC=C(C)C)c(=O)c2c1C = > 100 µM

Next:
stdin: Bench note: what TGI did CC1(Cl)CCC2(CC(Br)=CC3OC32C)CC1Br (stereo unspecified) show?
stdout: 38.7 µM

###

test system: SK-MEL-5 melanoma; experiment: NCI tumour cell line growth inhibition, 48 h
readout.label: TGI

COc1cc2c(cc1Nc1nc(Nc3ccsc3C(N)=O)c3cc[nH]c3n1)N(C(=O)CN(C)C)CCC2(C)C = 3.89 µM
COc1ccc(Cn2cc3c(c2-c2ccc(OC)cc2)CCc2cnoc2-3)cc1 = 4.71 µM
O=C(O)c1cccc(N=Nc2c(S(=O)(=O)O)ccc3c2C(=O)c2ccccc2C3=O)c1O = > 100 µM
O=CC(O)C(O)C(O)C(O)COP(=O)(O)Cc1ccccc1 (stereo unspecified) = > 10 µM
COC1(OC)CC(CO)(CNc2cc(Cl)nc(N)n2)C1 = > 100 µM

For the 6 compounds below, give their TGI values.
1. CCCCS(=O)(=O)CCC(N)C(=O)O (stereo unspecified)
2. Nc1nc(-c2ccc(F)cc2)c(-c2ccc3ncccc3n2)s1
3. Cn1c(-c2ccccc2)cc2c3ccsc3c3ccsc3c21
4. CC(C)[Si](OC1=CCC[C@H]2NC(=O)[C@@H](Cc3ccccc3)[C@@]12C)(C(C)C)C(C)C
5. COC(=O)c1ccc(C)cc1/C=C1\Cc2ccc(C)cc2C1=O
6. CN(C)c1nncc2[nH]cnc12

stdout:
> 100 µM
> 25 µM
> 100 µM
9.58 µM
29.7 µM
> 100 µM

###

test system: SK-MEL-2 melanoma; assay: NCI tumour cell line growth inhibition, 48 h; in the data active means GI50 below about 0.43 µM; inactive means the rest
The reply should be one of these categories: active, inactive

O=C(NCc1ccc(Cn2c(=O)sn(-c3ccccc3)c2=O)cc1)OCc1ccc2c(Br)cc(Br)c(O)c2n1 = inactive
CCNC(=O)c1cc2c(-c3cc(C(C)(C)O)ccc3Oc3c(C)cc(F)cc3C)cn(C)c(=O)c2[nH]1 = inactive
COc1cc(/C=C/C(=O)c2c(C)nc3ccccc3c2C)ccc1OCCCOc1cc2c(cc1OC)C(=O)N1CCC[C@H]1C=N2 = active
CCCCCCCCCCCC1CCCC(C)N1 (stereo not drawn) = inactive
COc1cc2c(cc1Nc1nc(Nc3ccsc3C(N)=O)c3cc[nH]c3n1)N(C(=O)CN(C)C)CCC2(C)C = inactive
CC(C)CCN=C(N)c1ccc(N2CCN(c3ccc(C(N)=NCCC(C)C)cc3)CC2)cc1 = inactive
COc1cc(O)c(C(=O)/C=C/c2ccc(O)cc2)c(O)c1[C@@H]1C[C@H](CCc2ccc(O)cc2)O[C@H](c2ccc(O)cc2)C1 = inactive

Next:
stdin: Please indicate how the test categorized CC(=O)O[C@]1(C(C)=O)CC[C@H]2[C@@H]3C=C(C)C4=CC(=O)CC[C@]4(C)[C@H]3CC[C@@]21C .
stdout: inactive

###

Please provide measured TGI for the entries that follow.
tested on: SK-OV-3 ovarian; test: NCI tumour cell line growth inhibition, 48 h

O=C1/C(=C/c2ccccc2O)N=C(c2ccccc2)N1c1nc2ccccc2s1 = > 100 µM
COC(=O)C1CCC(=O)N1C(c1ccc(OC)cc1)c1ccc(OC)cc1 (configuration not stated) = > 100 µM
Nc1nc(Cl)cc(NCCC2(CO)CCC2)n1 = > 100 µM
N#Cc1c(N)nc(N2CCOCC2)c(C#N)c1-c1cccnc1 = 99.6 µM
c1ccc2c(c1)ncn2C1CCCCO1 (configuration not stated) = > 100 µM
CCOC(=O)NC(NC1=NCCS1)(C(=O)OCC)C(F)(F)F (configuration not stated) = > 100 µM
O=C(Nc1nc2ncn(CCNCc3ccccc3)c2c(=O)[nH]1)c1ccccc1 = > 100 µM
CCC1CCc2nc3sc(C(=O)Nc4cccc(F)c4)c(N)c3cc2C1 (configuration not stated) = > 100 µM
CC(=O)OCC1OC(SC2OC(COC(C)=O)C(OC(C)=O)C(OC(C)=O)C2OC(C)=O)C(OC(C)=O)C(OC(C)=O)C1OC(C)=O (configuration not stated) = > 100 µM
CN(CC(=O)N(Cc1ccc(C2CCCCC2)cc1)c1ccc(C(=O)O)c(O)c1)S(=O)(=O)c1c(F)c(F)c(F)c(F)c1F = 31.1 µM

For the 5 compounds below, give their TGI values.
1. Cc1occc1C(=S)Nc1ccc(Cl)c(C(=O)OC(C)C2CC2)c1 (configuration not stated)
2. O=C1c2ccccc2C(=O)c2c1ccc(C1C(=O)c3ccccc3C1=O)c2-c1c(C2C(=O)c3ccccc3C2=O)ccc2c1C(=O)c1ccccc1C2=O
3. C/C(=C/C(=O)Nn1c(Cc2ccccc2)n[nH]c1=O)C(=O)O
4. CCOC(=O)c1ccc(C(=O)/C(C(C)=O)=C2\CCCN2C)n1C
5. N#Cc1c(N)sc2c1-c1ccccc1OC2

stdout:
["50.5 µM", "> 100 µM", "> 100 µM", "> 100 µM", "> 100 µM"]

For the 7 compounds below, give their TGI values.
1. COc1ccc(Cn2cc3c(c2-c2ccc(OC)cc2)CCc2cnoc2-3)cc1
2. CC(C)C(C)C(C)(C)P(C)(C)=O (configuration not stated)
3. COc1ccc2sc(-n3nc4ccccc4c3Nc3nc4ccc(OC)cc4s3)nc2c1
4. O=C1/C(=C/c2cccc(Br)c2)CSC/C1=C\c1cccc(Br)c1
5. CN(C)c1ccccc1CN1CCCN(Cc2ccccc2N(C)C)C1c1ccncc1
6. CSc1ccc(NC(=S)NN(C)C)cc1
7. CC1(Cl)CCC2(CC(Br)=CC3OC32C)CC1Br (configuration not stated)

stdout:
1. > 100 µM
2. > 100 µM
3. 7.47 µM
4. 42 µM
5. 32.9 µM
6. > 10 µM
7. > 100 µM
